From: patent EP0571511B1

target: acétylcholinestérase (Homo sapiens, UniProt P22303)
Sequence (P22303 32-614, species assumed): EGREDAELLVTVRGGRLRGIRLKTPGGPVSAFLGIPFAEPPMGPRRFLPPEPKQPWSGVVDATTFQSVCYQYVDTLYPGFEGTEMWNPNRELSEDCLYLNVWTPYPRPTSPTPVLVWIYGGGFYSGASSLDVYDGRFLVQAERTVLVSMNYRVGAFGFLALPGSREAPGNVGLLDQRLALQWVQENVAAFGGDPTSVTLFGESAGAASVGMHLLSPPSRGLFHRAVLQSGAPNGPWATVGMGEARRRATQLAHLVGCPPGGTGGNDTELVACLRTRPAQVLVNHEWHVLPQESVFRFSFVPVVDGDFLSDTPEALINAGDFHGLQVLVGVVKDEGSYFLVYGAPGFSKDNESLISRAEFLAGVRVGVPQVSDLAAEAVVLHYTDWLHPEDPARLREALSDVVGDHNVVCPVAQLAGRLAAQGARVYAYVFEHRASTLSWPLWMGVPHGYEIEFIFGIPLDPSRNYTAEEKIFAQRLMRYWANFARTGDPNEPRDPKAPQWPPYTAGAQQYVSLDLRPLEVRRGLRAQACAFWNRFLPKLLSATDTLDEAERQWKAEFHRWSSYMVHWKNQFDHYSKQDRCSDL
metricName: pIC50
Note on units: pIC50 is unitless, being -log10 of a concentration expressed in mol/L.

Request: Which pIC50 reading was recorded for the compound O=C(NC(=S)NCCC1CCN(Cc2ccccc2)CC1)c1ccc2c(c1)OCO2 ?
Result: 7.74
